- Experiment: CD137 reporter assay co-culture with tumor cells (Promega CD137 luciferase reporter, Jurkat cells)
- Type: cell-based
- Condition Description: EphA2 cell line HT-29; read-out: Emax (Fold Induction over background)
Starred links: 1 amine or outer side, 2 acyl side, 3 side chain; linkers in the order of their positions; H or OH if unused. Positions of bridges follow the written chain, without caps; N, C: chain ends. Non-standard residues stand in square brackets, D forms with d. Chains are numbered I, II in the order given. X1 = O=C(CCOCCOCCOCCN(CCOCCOCCOCCn1cc(CCC(=O)[*:2])nn1)CCOCCOCCOCCn1cc(CCC(=O)[*:3])nn1)[*:1]; TATA = O=C(CC[*:1])N1CN(C(=O)CC[*:2])CN(C(=O)CC[*:3])C1; d1Nal = N[C@H](Cc1cccc2ccccc12)C(=O)O; Hyp = O=C(O)[C@@H]1C[C@@H](O)CN1; hArg = N=C(N)NCCCC[C@H](N)C(=O)O; tBuAla = CC(C)(C)C[C@H](N)C(=O)O; Nle = CCCC[C@H](N)C(=O)O
Reported Property: fold induction
Just the number, please.

Item: I: A[hArg]DC[Hyp]LVNPLCLEP[d1Nal]WTC-NH2 / II: Ac-C[tBuAla]PE[dK]PYCFADPY[Nle]CA-NH2 / III: Ac-C[tBuAla]PE[dK]PYCFADPY[Nle]CA-NH2 (linker I:4-I:11-I:18, II:1-II:8-II:15, III:1-III:8-III:15 via TATA (inferred); linker I:N-II:5-III:5 via X1 (inferred)) [BCY13272] | fold induction: 36.5

---

- Experiment: CD137 reporter assay co-culture with tumor cells (Promega CD137 luciferase reporter, Jurkat cells)
- Type: cell-based
- Condition Description: EphA2 cell line A549; read-out: Emax (Fold Induction over background)
Starred links: 1 amine or outer side, 2 acyl side, 3 side chain; linkers in the order of their positions; H or OH if unused. Positions of bridges follow the written chain, without caps; N, C: chain ends. Non-standard residues stand in square brackets, D forms with d. Chains are numbered I, II in the order given. X1 = O=C(CCOCCOCCOCCN(CCOCCOCCOCCn1cc(CCC(=O)[*:2])nn1)CCOCCOCCOCCn1cc(CCC(=O)[*:3])nn1)[*:1]; TATA = O=C(CC[*:1])N1CN(C(=O)CC[*:2])CN(C(=O)CC[*:3])C1; d1Nal = N[C@H](Cc1cccc2ccccc12)C(=O)O; Hyp = O=C(O)[C@@H]1C[C@@H](O)CN1; hArg = N=C(N)NCCCC[C@H](N)C(=O)O; tBuAla = CC(C)(C)C[C@H](N)C(=O)O; Nle = CCCC[C@H](N)C(=O)O
Reported Property: fold induction
Format: numeric value only, no unit, no commentary.

Field fold induction (entry I: A[hArg]DC[Hyp]LVNPLCLEP[d1Nal]WTC-NH2 / II: Ac-C[tBuAla]PE[dK]PYCFADPY[Nle]CA-NH2 / III: Ac-C[tBuAla]PE[dK]PYCFADPY[Nle]CA-NH2 (linker I:4-I:11-I:18, II:1-II:8-II:15, III:1-III:8-III:15 via TATA (inferred); linker I:N-II:5-III:5 via X1 (inferred)) [BCY13272] ) reads 25.7

---

- Experiment: Pharmacokinetics of BCY13272 in SD rats
- Assay type: in vivo
- Condition Description: rat, in vivo, 3.6 mg/kg IV infusion (15 min), read-out: Clp (clearance)
Starred links: 1 amine or outer side, 2 acyl side, 3 side chain; linkers in the order of their positions; H or OH if unused. Positions of bridges follow the written chain, without caps; N, C: chain ends. Non-standard residues stand in square brackets, D forms with d. Chains are numbered I, II in the order given. X1 = O=C(CCOCCOCCOCCN(CCOCCOCCOCCn1cc(CCC(=O)[*:2])nn1)CCOCCOCCOCCn1cc(CCC(=O)[*:3])nn1)[*:1]; TATA = O=C(CC[*:1])N1CN(C(=O)CC[*:2])CN(C(=O)CC[*:3])C1; d1Nal = N[C@H](Cc1cccc2ccccc12)C(=O)O; Hyp = O=C(O)[C@@H]1C[C@@H](O)CN1; hArg = N=C(N)NCCCC[C@H](N)C(=O)O; tBuAla = CC(C)(C)C[C@H](N)C(=O)O; Nle = CCCC[C@H](N)C(=O)O
Reported Property: clearance (mL/min/kg)
# number only, unit mL/min/kg dropped from output

So, I: A[hArg]DC[Hyp]LVNPLCLEP[d1Nal]WTC-NH2 / II: Ac-C[tBuAla]PE[dK]PYCFADPY[Nle]CA-NH2 / III: Ac-C[tBuAla]PE[dK]PYCFADPY[Nle]CA-NH2 (linker I:4-I:11-I:18, II:1-II:8-II:15, III:1-III:8-III:15 via TATA (inferred); linker I:N-II:5-III:5 via X1 (inferred)) [BCY13272] ? Its clearance was 7.4
